Taken from patent US20070197446A1.

- measurement-target: HLA-A*0201
Listed next: entries and their corresponding ELISA (Absorption-Pass/Fail Control).
measured-property: ELISA (Absorption-Pass/Fail Control) (absorption)

INSERT INTO results (binder, reported_result) VALUES
  ('KLCDLDGVK (modifications not checked) [… (SEQ ID NO: 22)]', 0.2),
  ('SLVKSDQIC (modifications not checked) [… (SEQ ID NO: 16)]', 0.09),
  ('IMEKNVTVT (modifications not checked) [… (SEQ ID NO: 19)]', 0.02),
  ('LILRDCSVA (modifications not checked) [… (SEQ ID NO: 23)]', 0.57);
